system: 786-0 renal; assay: NCI-60 one-dose screen, 48 h; details: 10 µM unless noted
Compounds without any hit were thinned out: in the full panel of roughly 83,000, 20% have a hit. Calls of active or inactive are those of the source. How the source made its calls: active means growth percent below 10; inactive means the rest.
Outcome codes: yes (1) (active), no (0) (inactive)

smiles-entry | system-tested | assigned-label
COc1ccc(CCN2C(=O)CSC2=S)cc1OC | 786-0 renal | no (0)
O=C1[C@H]2Cc3c([nH]c4ccccc34)[C@@H](c3ccc(Cl)cc3)N2C(=O)CN1C1CCN(Cc2c(Cl)cccc2Cl)CC1 | 786-0 renal | yes (1)
CN(c1ccc(Cl)cc1)S(=O)(=O)c1ccc(-c2cnc(C3CC3)o2)cc1 | 786-0 renal | no (0)
C=C(C)C(=O)O[C@H]1C[C@@]2(C)OC(=CC2=O)[C@H](C)[C@H](O)[C@H]2OC(=O)C(=C)[C@@H]21 | 786-0 renal | no (0)
C#C[C@]1(O)CC[C@H]2[C@@H]3CC=C4c5sc(Nc6ccc(OC)nc6)nc5CC[C@]4(C)[C@H]3CC[C@@]21C | 786-0 renal | yes (1)
O=c1[nH]c(CCl)nc2c1cnn2-c1ccccc1 | 786-0 renal | no (0)
C/C(Cc1ccc(Cl)cc1)=C(/c1ccccc1)c1ccc(OCCN)cc1 | 786-0 renal | no (0)
CCOC(=O)c1c(Nc2ccccc2)nn2c(-c3ccc(OC)c(OC)c3)ccnc12 | 786-0 renal | no (0)
CCC(=O)Nc1cc(Nc2cc(NC3CC3)n3ncc(C#N)c3n2)ccc1C | 786-0 renal | no (0)

###

tested on: DU-145 prostate; experiment: NCI-60 one-dose screen, 48 h (100 = growth as untreated, 0 = no growth, -100 = all killed); settings: 10 µM unless noted
This is part of a sample that, as a whole, favours compounds with a hit. Of some 83,000 tested, about 20% had one in any assay.
Field 'label' (enum: y / n). Set to y when growth is strictly under 60%; else n.

compound | assigned-label
CCCCSc1nnc(-c2ccc(-c3ccc(Cl)cc3)nc2C)o1 | n
Nc1nc(N)c2c(n1)NC(c1ccccc1)CC(c1ccc(Nc3nc(NCCO)nc(Nc4ccc(Cl)cc4)n3)cc1)=N2 (stereo not given) | y
CCC(=O)Nc1cc(Nc2cc(NC3CC3)n3ncc(C#N)c3n2)ccc1C | y
CCc1ccc(NC(=O)N[C@@H](Cc2cc(F)cc(F)c2)C(=O)N[C@@H]2C(=O)N3CCC[C@H]3C(=O)N3CCO[C@H](C)[C@H]3C(=O)N[C@@H](CO)C(=O)N3C[C@H](C)C[C@H]3C(=O)O[C@H]2C)c(F)c1 | y
O=c1cc(-c2ccccc2)nc2sc(-c3c[nH]c4ccc(F)cc34)nn12 | n

###

test system: COLO 205 colon; test: NCI-60 one-dose screen, 48 h; conditions: 10 µM unless noted
About 83,000 compounds went through this panel and 20% of them were active in at least one assay; those are over-represented in the sample as a whole. The source made the active and inactive calls. Rule for the calls: active = growth percent below 10; inactive = the rest.
Outcome codes: 1 (yes) for active, 0 (no) for inactive

smiles-entry | assigned-label
Cc1cn(-c2cc(NC(=O)c3cncc(C#Cc4cnc5ccc(O[C@H]6CCOC6)nn45)c3)cc(C(F)(F)F)c2)cn1 | 0 (no)
O=C(NCCCNc1cc(-c2cn(-c3ccccc3)nc2-c2cccc(O)c2)ccn1)Nc1cc(C(F)(F)F)cc(C(F)(F)F)c1 | 0 (no)
ClC(Cl)c1nc(-c2cccs2)n2nc(-c3ccccc3)cc2n1 | 1 (yes)
O=C1c2c(c3c4cccnc4[nH]c3c3ccc4ccccc4c23)C(=O)N1CCN1CCOCC1 | 0 (no)
Cc1ccc(S(=O)(=O)N/N=C/c2cn(-c3ccc(F)cc3)nc2-c2ccc(S(C)(=O)=O)cc2)cc1 | 0 (no)
Clc1ccccc1/C=C/c1nn2c(-c3ccncc3)nnc2s1 | 0 (no)
CS(=O)(=O)c1ccc2c(c1)c1c(n2C(=O)c2ccc(Cl)cc2)CCCC1 | 1 (yes)
C=C1C(=O)O[C@@H]2/C=C(/C)C3=CC(=O)[C@@](C)(C[C@H](OC(=O)/C(C)=C\C)[C@@H]12)O3 | 1 (yes)
NC(=O)C(=Cc1ccc(Cl)cc1)C(N)=O | 0 (no)

###

test system: COLO 205 colon; test: NCI-60 one-dose screen, 48 h; conditions: 10 µM unless noted
Compounds without any hit were thinned out: in the full panel of roughly 83,000, 20% have a hit. Activity calls are given as the source filed them. Rule for the calls: active = growth percent below 10; inactive = the rest.
Outcome codes: active, inactive

smiles-entry | assigned-label
c1cncc(-c2cn3nc(-c4c[nH]c5ccccc45)sc3n2)c1 | inactive
C=CCn1c(SCC(=O)Nc2cccc(C(=O)/C=C/c3ccc(OC)c(OC)c3)c2)nc2ccccc2c1=O | inactive
CCN1C/C(=N\S(=O)(=O)c2ccccc2)N(CC)C1=S | inactive
COc1ccc(NC2=C(Cl)C(=O)C(C)=C(C)C2=O)cc1 | inactive
C=C(C)[C@@H]1CC[C@]2(C)[C@H](CC=C3[C@@H]4CC(C)(C)CC[C@]4(C(=O)NCC#CCN4CCN(C)CC4)CC[C@]32C)[C@@]1(C)CCC#N | inactive
N=c1c2cc(-c3ccccc3)oc2ncn1/N=C/c1ccccc1 | inactive
COc1cc(C(=O)C[n+]2ccc3ccccc3c2)cc(OC)c1OC | inactive
C=C(C)C(=O)O[C@H]1C[C@@]2(C)OC(=CC2=O)/C(C)=C\[C@H]2OC(=O)C(=C)[C@H]12 | active
CNC(=O)c1c(NC(=O)c2ccc(F)cc2F)sc2c1CCC(=O)C2 | active

###

tested on: UACC-257 melanoma; assay: NCI-60 one-dose screen, 48 h (100 = growth as untreated, 0 = no growth, -100 = all killed); conditions: 10 µM
The panel holds about 83,000 compounds, 20% with a hit somewhere; the sample as a whole holds those more often.
property-name: growth (%)

compound | system-tested | property-name | observed
CCCCSc1nnc(-c2ccc(-c3ccc(Cl)cc3)nc2C)o1 | UACC-257 melanoma | growth | 106
O=C(/C=C1\C=CN(CCCCO)c2ccccc21)n1ccc2ccccc21 | UACC-257 melanoma | growth | 105
CCn1c2ccc(/C=N/NS(=O)(=O)CCN(C)C)cc2c2cc(/C=N/NS(=O)(=O)CCN(C)C)ccc21 | UACC-257 melanoma | growth | 103
Cc1ccc(/C=C/c2nn3c(-c4ccco4)nnc3s2)cc1 | UACC-257 melanoma | growth | 112
COc1cc(/C=C/C(=O)c2ccc(NC(=O)COc3cccc4cccnc34)cc2)cc(OC)c1OC | UACC-257 melanoma | growth | 74.6
COc1ccc(CCN2C(=O)/C(=C/c3nc(CO)cs3)SC2=S)cc1 | UACC-257 melanoma | growth | 91.2
N#Cc1c(-c2ccccc2)cc(-c2c[nH]c3ccccc23)nc1-c1c[nH]c2ccccc12 | UACC-257 melanoma | growth | 107
CN(C)C(=O)C1=NC(CO)C(=O)N(c2ccc(Cl)cc2)N1 (stereo not drawn) | UACC-257 melanoma | growth | 107
CS(=O)(=O)c1ccc2c(c1)c1c(n2Cc2ccc(Cl)cc2)CCCC1 | UACC-257 melanoma | growth | 92.1
COc1ccc(OC)c(NC2=C(Cl)C(=O)C(C)=C(C)C2=O)c1 | UACC-257 melanoma | growth | 86.8
CC[C@]12C=CCN3CC[C@]4(C(=C(C(=O)OC)C1)Nc1cc5c(cc14)[C@@H]1[C@H](O5)[C@@H](O)[C@@]4(CC)CC(C(=O)OC)=C5Nc6cc(OC)ccc6[C@@]56CCN1[C@@H]46)[C@@H]32 | UACC-257 melanoma | growth | 29.5
O=C(NNc1nc2cc(F)ccc2n2cncc12)c1cnccn1 | UACC-257 melanoma | growth | 36.5
COc1ccc(-c2nc(SCCC(C)C)nc(N/N=C\c3ccc(O)cc3)c2C#N)cc1 | UACC-257 melanoma | growth | 111
Cc1cc(NS(=O)(=O)c2ccc(-c3cnc(C4CC4)o3)cc2)ccc1I | UACC-257 melanoma | growth | 66.8
COc1cc(-c2noc(C[C@@H](NC(=O)OCc3ccccc3)C(C)C)n2)cc(OC)c1OC | UACC-257 melanoma | growth | 98.5
O=C(Nc1cccc(-c2nc(-c3ccc(NC(=O)c4cccnc4)cc3Cl)no2)c1)Nc1ccc(NC(=O)C2CC2)c(C(F)(F)F)c1 | UACC-257 melanoma | growth | -45.5
CCOC(=O)c1c(Nc2ccccc2)nn2c(-c3ccc(OC)c(OC)c3)ccnc12 | UACC-257 melanoma | growth | 95.2
CC1(C)CC[C@]2(C(=O)N3CCCNCC3)CC[C@]3(C)C(=CC[C@@H]4[C@@]5(C)CCC(=O)C(C)(C)[C@@H]5CC[C@]43C)[C@H]2C1 | UACC-257 melanoma | growth | 105

###

System: M14 melanoma
Test: NCI-60 one-dose screen, 48 h (100 = growth as untreated, 0 = no growth, -100 = all killed)
Conditions: 10 µM unless noted
Protocol: Growth inhibition of the M14 human tumor cell line is measured as a screen for anti-cancer activity. Cells are grown in 96 well plates and exposed to the test compound for 48 hours. Compounds are tested at a single concentration, which is 10^-5 M for most compounds. The reported endpoint is percent growth (GI% or GIPRCNT), where numbers from 0 - 100% represent growth inhibition, and numbers from -100% - 0 represent cell death. For example, a value of 40 represents 60% growth inhibition. […]
The panel holds about 83,000 compounds, 20% with a hit somewhere; the sample as a whole holds those more often.
Measured growth accompanies every entry in the list below.

compound | unit | growth
Oc1ccc(-c2nnc(SCc3ccc(O)c4ncccc34)n2-c2ccccc2)cc1 | % | -28
CC1(C)CC[C@]2(C(=O)O)CC[C@]3(C)C(=CCC4[C@@]5(C)C[C@@H](O)[C@@H]6OC(c7cccc([N+](=O)[O-])c7)OC[C@@]6(C)C5CC[C@]43C)C2C1 (some centres undefined) | % | 72.8
N/C(=N\OC(=O)CSc1nc2ccccc2s1)c1ccc(Cl)cc1 | % | 100
O=S(=O)(Nc1ccc2c(c1)OC(F)(F)O2)c1ccc(-c2cnc(C3CC3)o2)cc1 | % | 25.4
C=C1C(=O)O[C@@H]2C[C@@H](C)/C=C\C(=O)[C@](C)(OC(C)=O)C[C@H](OC(=O)/C(C)=C\C)[C@@H]12 | % | -37.1
COc1ccc(S(=O)(=O)n2cc(C=O)c3ccccc32)c(OC)c1 | % | 52.8
CC1(C)CC[C@]2(C(=O)N3CCCN(CC#N)CC3)CC[C@]3(C)C(=CC[C@@H]4[C@@]5(C)CC[C@H](O)C(C)(C)[C@@H]5CC[C@]43C)[C@H]2C1 | % | 65.7
Cc1ccc(NC(=O)N[C@@H](Cc2cc(F)cc(F)c2)C(=O)NC2C(=O)N3CCC[C@H]3C(=O)N3CCCC[C@H]3C(=O)N[C@@H](C)C(=O)N3C[C@H](C)C[C@H]3C(=O)O[C@H]2C)c(F)c1 (some centres undefined) | % | 23
C[C@H]1[C@H](C)CC[C@]2(COC(=O)c3cccnc3)CC[C@]3(C)C(=CC[C@@H]4[C@@]5(C)CCCNC(C)(C)[C@@H]5CC[C@]43C)[C@H]12 | % | 79.1
CCc1ccc(NC(=O)N[C@@H](Cc2cc(F)cc(F)c2)C(=O)N[C@@H]2C(=O)N3CCC[C@H]3C(=O)N3CCO[C@H](C)[C@H]3C(=O)N[C@@H](CO)C(=O)N3C[C@H](C)C[C@H]3C(=O)O[C@H]2C)c(F)c1 | % | 24
CCOC(=O)c1nn(-c2ccc(C)cc2)c(=O)c2c(N)c(C#N)c(-c3ccc(OC)cc3)cc12 | % | 102
CN(c1ccc(Br)cc1)S(=O)(=O)c1ccc(-c2cnc(C3CC3)o2)cc1 | % | 8.2
O=C1[C@H]2Cc3c([nH]c4ccccc34)[C@H](c3ccc(Cl)cc3)N2C(=O)CN1C1CCN(Cc2c(Cl)cccc2Cl)CC1 | % | 71.5
COc1cc(OC)c(S(N)(=O)=O)cc1C(=O)/C=C/c1ccccc1 | % | 45.9
O=S(=O)(Nc1ccc(C2CC2)cc1)c1ccc(-c2cnc(C3CC3)o2)cc1 | % | 53.6
O=C1[C@@H]2Cc3c([nH]c4ccccc34)[C@H](c3c(Cl)cccc3Cl)N2C(=O)CN1C1CCN(Cc2ccccc2)CC1 | % | 23.3
CS(=O)c1nccc(-c2c(-c3ccc(F)c(OCc4ccccc4)c3)nc3sccn23)n1 (centres undefined) | % | 96.5
Oc1ccc(CSc2nnc(-c3ccccc3)o2)c2cccnc12 | % | 15.5
NS(=O)(=O)Oc1ccc2nc(Nc3ccc(F)c(F)c3)ccc2c1 | % | 87.9
Nc1nc(N)c2c(n1)NC(c1ccc(Cl)cc1)CC(c1ccc(Nc3nc(NCCO)nc(Nc4ccc(Cl)cc4)n3)cc1)=N2 (centres undefined) | % | 34.5
C/C(=C(/C)C1CC1CCN(C(=O)c1ccc([N+](=O)[O-])cc1)S(=O)(=O)c1ccc(C)cc1)C1CCCCC1 (centres undefined) | % | 97.7
N/C(=N\OC(=O)CSc1nc2ccccc2s1)c1ccc2ccccc2c1 | % | 98.6
O=C1c2c(c3c4cc(Br)ccc4[nH]c3c3ccc4ccccc4c23)C(=O)N1CCN1CCCCC1 | % | 20
COc1ccccc1/C=C/C(=O)c1nnn(-c2ccc(C(=O)O)cc2)c1C | % | 77.8
C=CCn1c(SCC(=O)Nc2cccc(C(=O)/C=C/c3ccc(C)cc3)c2)nc2ccccc2c1=O | % | 96.7
C=CCn1c(SCC(=O)Nc2ccc(OC)cc2)nnc1-c1ccc(Cl)cc1 | % | 96.3
CC1COc2c(N3CCN(C)CC3)c(F)cc3c(=O)c(C(=O)N/N=C/c4cc[nH]c4)cn1c23 (centres undefined) | % | -79.8
O=C(CSc1ccc(-c2nc3ccccc3[nH]2)cn1)N1CCN(c2ccccc2F)CC1 | % | 59.8
CCOC(=O)c1c(NC(=O)c2ccc(F)cc2F)sc2c1CCC(=O)C2 | % | 111
Cc1ccc(/C=C/CC(=O)Nc2ccc(C(=O)Nc3ccc(F)cc3N)nc2)cn1 | % | 35.5
CN(c1ccc(F)cc1)S(=O)(=O)c1ccc(-c2cnc(C3CC3)o2)cc1 | % | 14.6
O=c1cc(-c2ccccc2)nc2sc(-c3c[nH]c4ccc(Br)cc34)nn12 | % | 105
CCNC(=O)Oc1ccc(/C(=C(/C)c2ccc(Cl)cc2)c2ccc(OCCN3CCCC3)cc2)cc1 | % | 68
N/C(=N\c1nc2ccc([N+](=O)[O-])cc2s1)C(Cl)(Cl)Cl | % | 85.5
